Below, each of the compounds is paired with its reported Biodistribution in rats: Intestine value.
# Method Description: Biodistribution of the 99mTc(N) heterocomplexes in rats (organ uptake, heart accumulation, heart/lung and heart/liver ratios)
# Assay type: in vivo, female Sprague-Dawley rats
# Test Settings: 30 min post injection
Value expressed in % dose/g; do not type the unit.

CCOCCN1CC[P](CCCOC)(CCCOC)[99Tc+]2(#[N])([S]C(N(CCOCC)C(C)C)=[S]2)[P](CCCOC)(CCCOC)CC1 [[^99mTc(N) (PNP5) (ISOET)]^+]; 8.36

Moving on to another compound below.
Answer with the recorded Biodistribution in rats: Intestine for the compound listed here: CCOCCN1CC[P](CCCOC)(CCCOC)[99Tc+]2(#[N])([S]C(N(CCOCC)CCOCC)=[S]2)[P](CCCOC)(CCCOC)CC1 [[^99mTc(N) (PNP5) (DBODC)]^+]
6.70

====

# Method Description: Biodistribution of the 99mTc(N) heterocomplexes in rats (organ uptake, heart accumulation, heart/lung and heart/liver ratios)
# Format: in vivo, female Sprague-Dawley rats
# Test Settings: 10 min post injection
Property Measured: Biodistribution in rats: Heart (% ID/g)
Value expressed in % ID/g; do not type the unit.

COCCC[P]1(CCCOC)CCN(CCOC)CC[P](CCCOC)(CCCOC)[99Tc+]12(#[N])[S]C(N(CCOC)CCOC)=[S]2 [[^99mTc(N) (PNP3) (DPODC)]^+]; 2.37

Moving on to another molecule below.
Answer with the recorded Biodistribution in rats: Heart for the molecule listed here: CCOCCN(CCOCC)C1=[S][99Tc+]2(#[N])([S]1)[P](CCCOC)(CCCOC)CCN(CCOC)CC[P]2(CCCOC)CCCOC [[^99mTc(N) (PNP3) (DBODC)]^+]
3.65

====

# Method Description: Biodistribution of the 99mTc(N) heterocomplexes in rats (organ uptake, heart accumulation, heart/lung and heart/liver ratios)
# Format: in vivo, female Sprague-Dawley rats
# Test Settings: rats, 30 min
Assign fulfilled whenever Heart/lung ratio in biodistribution does not fall below 5; assign not fulfilled whenever it does.

CCOCCC[P]1(CCCOCC)CCN(CCOCC)CC[P](CCCOCC)(CCCOCC)[99Tc+]12(#[N])[S]C(N(CCOCC)CCOCC)=[S]2 [[^99mTc(N) (PNP6) (DBODC)^+]]; not fulfilled
CCOCCN1CC[P](CCCOC)(CCCOC)[99Tc+]2(#[N])([S]C(N(CCOCC)C(C)C)=[S]2)[P](CCCOC)(CCCOC)CC1 [[^99mTc(N) (PNP5) (ISOET)^+]]; fulfilled
CCOCCN(CCOCC)C1=[S][99Tc+]2(#[N])([S]1)[P](CCCOC)(CCCOC)CCN(CCOC)CC[P]2(CCCOC)CCCOC [[^99m−Tc(N) (PNP3) (DBODC)^+]]; not fulfilled
COCCC[P]1(CCCOC)CCN(CCOC)CC[P](CCCOC)(CCCOC)[99Tc+]12(#[N])[S]C(N(CCOC)CCOC)=[S]2 [[^99m−Tc(N) (PNP3) (DPODC)^+]]; fulfilled

Then this compound:
Determine whether this compound has Heart/lung ratio in biodistribution no lower than 5: CCOCCN1CC[P](CCCOC)(CCCOC)[99Tc+]2(#[N])([S]C(N(CCOCC)CCOCC)=[S]2)[P](CCCOC)(CCCOC)CC1 [[^99mTc(N) (PNP5) (DBODC)^+]]
fulfilled
